This collection of values is drawn from the supplement of paper PMC12042874.

- method: amyloid nucleation score (Sup35N fusion, yeast selection) (log enrichment); library NNK3; higher = more nucleation; inactive = no reads after selection;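 also: zero at mode of non-aggregating sequences after 7 days selection at 30°C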
test-readout: amyloid nucleation score

In the examples that follow, each entry is paired with its recorded amyloid nucleation score.
# substance, amyloid nucleation score
records = [
    ("GKDVHMKGNSKRSVWYVPQG", "inactive"),
    ("MLITYTLYCVICLGC", 1.46),
    ("KRGLTGVSLVLDETVAVPSD", "inactive"),
    ("IQDHFELFTNVGSYFQIQPL", "inactive"),
]

Returns the measured amyloid nucleation score for the input substance. Input: NNFRVNVHIIALVPECYFRL
2.44

Look up amyloid nucleation score for this substance: SEGFLAWCLRDLRSGRVAR
inactive

Which amyloid nucleation score is listed for KVVVMDCWWNNIYCTDQWVI ?
-0.021

Fill in the blank: the reported amyloid nucleation score of RLRYIGSILLLRRKVVFLMH is ____.
inactive

Reported amyloid nucleation score, substance SVGMFSVESLVLVKLRLWNL : ____
inactive

Would you mind telling me what amyloid nucleation score value was observed for GYVPMYVCLSPYHKTVLWLS ?
0.447

Entry CYLMYLSEILAYHVATWQAT : reported amyloid nucleation score = ?
inactive
